Each recorded value in this set is attributed to the Immune Epitope Database (IEDB).

molecular target: HLA-B*40:01; assay: IEDB peptide-MHC binding, purified MHC/competitive/radioactivity; filed as Kd, often an IC50 or EC50 that approximates it; bounds were set here for any values at or beyond the usual limits of such assays; settings: source organism: Dengue virus 3 Martinique/1243/1999
pKd: −log10 of the molar value.
assay-endpoint: pKd

• KEEESEGAI = 7.33

----------
target: HLA-B*35:01; test: IEDB peptide-MHC binding, purified MHC/competitive/fluorescence; filed as Kd, often an IC50 or EC50 that approximates it; bounds were set here for any values at or beyond the usual limits of such assays; details: source organism: Mycobacterium tuberculosis variant bovis BCG str. Pasteur 1173P2
pKd: −log10 of the molar value.
assay-endpoint: pKd

- MTMITPPTF: 6.96
